Ref: patent US5340833A

Target: human two-chain tPA (Homo sapiens, UniProt P00750)
Construct: human two-chain tPA was substituted for urokinase; purchased American Diagnostica
Sequence (P00750 311-562 limits assumed): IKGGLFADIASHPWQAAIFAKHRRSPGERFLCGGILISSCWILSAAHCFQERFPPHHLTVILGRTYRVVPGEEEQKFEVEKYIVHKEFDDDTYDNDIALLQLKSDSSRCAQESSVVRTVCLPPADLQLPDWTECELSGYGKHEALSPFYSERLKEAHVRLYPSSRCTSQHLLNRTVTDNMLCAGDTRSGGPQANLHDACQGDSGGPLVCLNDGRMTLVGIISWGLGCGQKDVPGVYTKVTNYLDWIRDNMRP
Sequence (P00750 36-310 limits assumed): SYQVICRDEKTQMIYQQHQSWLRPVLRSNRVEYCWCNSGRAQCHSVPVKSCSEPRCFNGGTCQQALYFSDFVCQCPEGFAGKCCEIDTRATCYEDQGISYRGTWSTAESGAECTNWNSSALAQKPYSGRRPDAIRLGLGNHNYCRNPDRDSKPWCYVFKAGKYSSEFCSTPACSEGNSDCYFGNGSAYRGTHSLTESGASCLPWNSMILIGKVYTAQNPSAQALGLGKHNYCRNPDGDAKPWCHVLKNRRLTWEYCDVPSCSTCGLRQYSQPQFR
Assay: tPA Indirect (Plasminogen-Linked) Assay (tPA Direct Assay result where lower)
Type: biochemical
Details: ratio with respect to urokinase indirect plasminogen-linked IC50; larger = greater specificity for urokinase
Counter-ions that a name gives are not always drawn.
Recorded tPA/UPA ratio for the following compounds

compound	test.system	inequality.operator	tPA/UPA ratio
Cl.N=C(N)c1cc2ccc3ccccc3c2s1	human two-chain tPA (Homo sapiens, UniProt P00750)	>	50
Cl.N=C(N)c1cc2cc(-c3ccccc3)ccc2s1	human two-chain tPA (Homo sapiens, UniProt P00750)	=	215
Cl.Cl.N=C(N)c1cc2c(-c3cccnc3)cccc2s1	human two-chain tPA (Homo sapiens, UniProt P00750)	=	152
Cl.N=C(N)c1cc2c(-c3ccco3)cccc2s1	human two-chain tPA (Homo sapiens, UniProt P00750)	=	53
CCCCCCc1cccc2sc(C(=N)N)cc12.Cl	human two-chain tPA (Homo sapiens, UniProt P00750)	=	214
Cl.N=C(N)c1cc2c(C#Cc3ccco3)cccc2s1	human two-chain tPA (Homo sapiens, UniProt P00750)	=	194
Cl.N=C(N)c1cc2c(-c3cc4ccccc4o3)cccc2s1	human two-chain tPA (Homo sapiens, UniProt P00750)	=	200
Cl.N=C(N)c1cc2c(-c3cccs3)cccc2s1	human two-chain tPA (Homo sapiens, UniProt P00750)	=	56
C#Cc1cccc2sc(C(=N)N)cc12.Cl	human two-chain tPA (Homo sapiens, UniProt P00750)	=	436
C=CCOCc1cc2ccc3sc(C(=N)N)cc3c2s1 [Compound 208, hydrochloride]	human two-chain tPA (Homo sapiens, UniProt P00750)	=	190
Cl.N=C(N)c1cc2cc(Br)ccc2s1	human two-chain tPA (Homo sapiens, UniProt P00750)	≥	400
C=Cc1cccc2sc(C(=N)N)cc12.Cl	human two-chain tPA (Homo sapiens, UniProt P00750)	=	6.3
N=C(N)c1cc2cc(C=CC3CC3)ccc2s1 [Compound 121, hydrochloride]	human two-chain tPA (Homo sapiens, UniProt P00750)	=	313
Cl.N=C(N)c1cc2cc(-c3ccco3)ccc2s1	human two-chain tPA (Homo sapiens, UniProt P00750)	=	200
C=Cc1ccc2sc(C(=N)N)cc2c1SC.Cl	human two-chain tPA (Homo sapiens, UniProt P00750)	=	30
CCCc1cccc2sc(C(=N)N)cc12.Cl	human two-chain tPA (Homo sapiens, UniProt P00750)	=	250
Cl.N=C(N)c1cc2cc(I)ccc2s1	human two-chain tPA (Homo sapiens, UniProt P00750)	≥	500
CC(C)/C=C/c1cccc2sc(C(=N)N)cc12.Cl	human two-chain tPA (Homo sapiens, UniProt P00750)	=	315
CC(C)C=Cc1cccc2sc(C(=N)N)cc12 [Compound 22, hydrochloride]	human two-chain tPA (Homo sapiens, UniProt P00750)	=	391
CCc1cccc2sc(C(=N)N)cc12.Cl	human two-chain tPA (Homo sapiens, UniProt P00750)	=	263
Cl.N=C(N)c1cc2ccsc2s1	human two-chain tPA (Homo sapiens, UniProt P00750)	≥	500

---

Target: urokinase (Homo sapiens, UniProt P00749)
Construct: human high molecular weight urokinase; purchased American Diagnostica, Greenwich, Conn
Assay: Urokinase Indirect (Plasminogen-Linked) Assay
Format: biochemical
Conditions: Table 3 column 4, simple number, unit inferred; read-out: uPA Indirect (plasminogen-linked) IC50
pIC50: −log10 of the molar value. Counter-ions that a name gives are not always drawn.
Recorded pIC50 for the following molecules

molecule	pIC50
N=C(N)c1cc2cc(-c3cc4ccccc4s3)ccc2s1 [Compound 128, hydrochloride]	6.03
C=Cc1cccc2sc(C(=N)N)cc12.Cl [Compound 17, hydrochloride]	5.85
Cl.N=C(N)c1cc2cc(-c3ccccc3)ccc2s1 [Compound 124, hydrochloride]	5.92
